Entries and their measured % inhibition of FRET signal follow.
Biological target: T1, human tenascin-C rCd4-His-FBG (rat; human, UniProt P05540 207-392, limits assumed)
T1 construct: domain: domains 3 and 4; C-terminal FBG fusion; biotinylated in the ELISA and HTRF screens; also called Hu TNC; human TNC rCd4-His-FBG; not shown: 6His tag
T1 sequence (chain (part 1 of 2)): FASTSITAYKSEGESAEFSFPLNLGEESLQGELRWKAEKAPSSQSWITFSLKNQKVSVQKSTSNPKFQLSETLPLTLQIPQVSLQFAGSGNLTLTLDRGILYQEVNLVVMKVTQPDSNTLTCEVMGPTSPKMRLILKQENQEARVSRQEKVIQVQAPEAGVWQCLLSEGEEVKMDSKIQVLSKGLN
T1 sequence (chain (part 2 of 2)): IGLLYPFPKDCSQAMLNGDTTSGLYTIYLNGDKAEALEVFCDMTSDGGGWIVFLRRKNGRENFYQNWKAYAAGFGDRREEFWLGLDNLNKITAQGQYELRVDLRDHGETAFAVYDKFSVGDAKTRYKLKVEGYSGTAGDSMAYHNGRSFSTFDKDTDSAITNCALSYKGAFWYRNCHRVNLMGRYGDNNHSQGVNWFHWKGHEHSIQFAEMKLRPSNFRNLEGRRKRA
Assay: HTRF competition; competitor d2-labelled B12 IgG

| binder | % inhibition of FRET signal |
| --- | --- |
| 161_01_C09 scFv (scFv, V domains shown, not shown: small tags and cut ends, E. coli supernatant scFv) VH: EVRLVQSGAEVKKPGASVKVSCKVSGYTLTELSMHWVRQAPGKGLEWMGGFDPEDGETIYAQKFQGRVTMTEDTSTDTAYMELSSLRSEDTAVYYCATAQLPYLAQTYWGQGTLVTVSS VL: DIQMTQSPASLPTSVGDRVTITCRASQYIQGFLNWYQQKPGKAPRLLIYAASTLQDGVPSRFSGSGYGTDFTLTISSLQPEDFATYYCQQSYSTPWTFGQGTKVEIK | ≥ 90% |
| 160_01_G2 scFv (scFv, V domains shown, not shown: small tags and cut ends, E. coli supernatant scFv) VH: EVRLVQSGAEVKKPGASVKVSCKVSGYTLTELSMHWVRQAPGKGLEWMGGFDPEDGETIYAQKFQGRVTMTEDTSTDTAYMELSSLRSEDTAVYYCATYTLDNMALTYWGQGTLVTVSS VL: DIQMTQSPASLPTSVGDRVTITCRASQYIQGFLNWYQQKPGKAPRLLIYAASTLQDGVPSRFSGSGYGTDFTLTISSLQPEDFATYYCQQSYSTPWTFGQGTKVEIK | ≥ 90% |
